Sourced from ChEMBL document CHEMBL1201862

Below, each entry is listed with its recorded GI50.
Test system: MCF7
assay.explanation: NCI tumour cell line growth inhibition, 48 h
The source made the active and inactive calls. Rule as the data show it: active = GI50 up to about 1.1 µM and inactive = higher.
measured.attribute: GI50

INSERT INTO assay_data (molecule, observed_value) VALUES
  ('CCCn1cc2c3c(cccc31)C1C=C(C)CN(C)C1C2 (configuration not stated)', '9.71 µM (inactive)'),
  ('CN(NC(=O)c1cccs1)C1=NCCCN1', '> 100 µM (inactive)'),
  ('O=C(O)c1ccc(NNc2cc(=O)[nH]c(=O)[nH]2)cc1', '> 100 µM (inactive)'),
  ('CC[C@H](NC(=O)OC(C)(C)C)C(=O)NCP(=O)(OCc1ccc([N+](=O)[O-])cc1)OCc1ccc([N+](=O)[O-])cc1', '48.9 µM (inactive)'),
  ('NC1C2C(CC(=O)O)OCC=C3CN4CCC1(C(=O)C(=O)O)C4CC32 (configuration not stated)', '> 100 µM (inactive)'),
  ('CN(C)c1ccc(-c2c(C#N)c(S)n(NS(=O)(=O)c3ccccc3)c(=O)c2C#N)cc1', '24.2 µM (inactive)'),
  ('NC(Cc1ccccc1)c1nccs1 (configuration not stated)', '> 100 µM (inactive)'),
  ('Cc1ccc(S(=O)(=O)OC2C(O)C(O)OC2C(c2cc(O)c3c(c2O)C(=O)c2ccccc2C3=O)c2cc(O)c3c(c2O)C(=O)c2ccccc2C3=O)cc1 (configuration not stated)', '3.44 µM (inactive)'),
  ('CC(C#N)N(CCc1ccccc1)C(=O)c1ccccc1 (configuration not stated)', '> 100 µM (inactive)'),
  ('O=C(Nc1cccc(C(=O)NCCCO)c1)/C(=C/c1ccccc1)NC(=O)c1ccccc1', '> 100 µM (inactive)'),
  ('c1ccc(/N=C2\c3ccccc3CN2c2ccccn2)nc1', '49.9 µM (inactive)'),
  ('COc1cc(O)c2c(=O)cc(C3(OC(C)=O)C=CC(OC4OC(CO)C(O)C(O)C4O)C=C3)oc2c1 (configuration not stated)', '> 100 µM (inactive)');

----------
Test system: SNB-78
assay.explanation: NCI tumour cell line growth inhibition, 48 h
Calls of active or inactive are those of the source. Rule as the data show it: active = GI50 up to about 1.1 µM and inactive = higher.
measured.attribute: GI50

INSERT INTO results (compound, observed_value) VALUES
  ('COc1cc(/C=C2\CCC/C(=C\c3ccc(O)c(OC)c3)C2=O)ccc1O', '2.75 µM (inactive)'),
  ('CC(=O)Oc1ccc2c(=O)c(C(C)=O)coc2c1', '80 µM (inactive)'),
  ('[O-][N+]1=C(c2ccccc2)COc2ccccc21', '> 100 µM (inactive)'),
  ('c1ccc(N2N=NC3C4CC(C5c6ccccc6C45)C32)cc1 (stereo not given)', '43.4 µM (inactive)'),
  ('CC(C)(Br)C1(O)CCCN1C(=O)c1ccccc1 (stereo not given)', '> 100 µM (inactive)'),
  ('O=C(O)[C@H](NS(=O)(=O)c1ccc([N+](=O)[O-])cc1)c1ccccc1', '> 100 µM (inactive)'),
  ('COc1ccc2c(c1)CC[C@@H]1C2CC[C@]2(C)C(=O)N(N)C(=O)CC12 (stereo not given in full)', '77.4 µM (inactive)'),
  ('CC1(c2cccc3ccccc23)OC(=O)c2ccccc21 (stereo not given)', '41.7 µM (inactive)'),
  ('CCC1(O)C(=O)OCc2c1cc1n(c2=O)Cc2cc3cc4c(cc3nc2-1)OCO4 (stereo not given)', '3.37 µM (inactive)'),
  ('C[C@]12Cc3conc3C(O)=C1CC[C@@H]1C2CC[C@@]2(C)C1CC[C@@H]2O (stereo not given in full)', '22.2 µM (inactive)');

----------
Test system: SNB-75
assay.explanation: NCI tumour cell line growth inhibition, 48 h
Activity calls are given as the source filed them. Cut-off read from the data, not from the text of the source: active = GI50 up to about 1.1 µM and inactive = higher.
Outcome codes: 1 (active), -1 (inactive)

INSERT INTO results (compound, discrete_label) VALUES
  ('CC(=O)N(C)c1ccc(/N=C/N(C)C)cc1', -1),
  ('CO/[N+]([O-])=C\C(=O)N/C=C/C(=O)O', -1),
  ('c1ccc(B2OCC(C3OB(c4ccccc4)OC4COB(c5ccccc5)OC43)O2)cc1 (stereo unspecified)', -1),
  ('C=C(c1ccccc1)C1(O)CCCCC1N (stereo unspecified)', -1),
  ('COc1cc(OC)c2nc(C)c3c(c2c1)NCC3', -1),
  ('O=C(Nc1cccc(C(=O)NCCCO)c1)/C(=C/c1ccccc1)NC(=O)c1ccccc1', -1),
  ('[O-][N+]1=C(c2ccccc2)COc2ccccc21', -1),
  ('NC1CCCCC1.O=P(O)(O)C(O)/C=C/c1ccccc1 (stereo unspecified)', -1),
  ('O=C(/C=C/c1ccc(O)c(O)c1)OCCCOC(=O)/C=C/c1ccc(O)c(O)c1', -1),
  ('c1ccc(C[n+]2cccc(-c3cc4ccccc4[nH]3)c2)cc1', -1),
  ('Cc1ccc(S(=O)(=O)c2ccc(N)cc2)cc1', -1),
  ('CCN(CC)CC1CCCCN1CC(=O)N1c2ccc(Br)cc2C(=O)Nc2cccnc21 (stereo unspecified)', -1),
  ('CCCC[C@H](CCc1ccccc1)N(C(=O)OC)N1CCC[C@H]1COC', -1),
  ('COc1ccc([Se][Se]c2ccc(OC)cc2OC)c(OC)c1', -1),
  ('O=[N+]([O-])/C(C(Cl)=C(Cl)Cl)=C(/Nc1cccc2cccnc12)n1nnc2ccccc21', -1),
  ('COc1ccc2oc(=O)c(-c3nc4ccccc4s3)cc2c1', -1),
  ('NC1CCN(c2nc3ccccc3c3c2CCCC3)CC1', -1),
  ('N=C(N)N/N=C/c1c(-c2ccc(Cl)cc2)nc2sc(Cl)cn12', -1),
  ('CCN(CC)c1oc(N(CC)CC)c(C(=O)Nc2ccccn2)c(=O)c1C(C)=O', -1),
  ('C=C1c2nc3ccccc3n2C=C(c2ccccc2)N1c1ccc([N+](=O)[O-])cc1', -1),
  ('Cn1cc2ccccc2c1-c1nc(F)nc(Oc2ccc3c(c2)CC[C@@H]2C3CC[C@]3(C)C(O)CCC23)n1 (stereo partly specified)', -1),
  ('CCC1(O)CC(OC2CC(N(C)C)C(OC3CC(O)C(OC4CCC(=O)C(C)O4)C(C)O3)C(C)O2)c2c(O)c3c(c(O)c2C1C(=O)OC)C(=O)c1cccc(O)c1C3=O (stereo unspecified)', 1),
  ('CC(C)C(Nc1c2ccccc2[n+](C)c2ccccc12)C(=O)O (stereo unspecified)', -1),
  ('CCCCC(C(=O)NCCNC(=O)CCC(=O)N(C)O)C(=O)NCCNC(=O)CCC(=O)N(C)O', -1),
  ('NC(Cc1ccccc1)c1nccs1 (stereo unspecified)', -1),
  ('NC1=Nc2ccccc2Sc2nc3ccccc3n21', -1),
  ('Cc1ccc(S(=O)(=O)OC2C(O)C(O)OC2C(c2cc(O)c3c(c2O)C(=O)c2ccccc2C3=O)c2cc(O)c3c(c2O)C(=O)c2ccccc2C3=O)cc1 (stereo unspecified)', -1),
  ('c1ccc2c(c1)SC1=C(SC(=C3SC4=C(S3)Sc3ccccc3S4)S1)S2', -1),
  ('COC(=O)[C@@]1(C)/C(=N/NS(=O)(=O)c2ccc(C)cc2)CCC[C@@H]1C', -1),
  ('CCCCC1=CC1(C#N)[N+](=O)[O-] (stereo unspecified)', -1),
  ('O=C1N[C@@H]2CCC[C@@H]2[C@@H]1c1ccc(Cl)cc1', -1),
  ('CC/C=C/c1cc2c(cc1O)CCC1C2CC[C@@]2(C)C1CC[C@@H]2O (stereo partly specified)', -1),
  ('N/N=C(/Cc1nc2ccc(C(=O)c3ccccc3)cc2nc1O)C(=O)Nc1ccc([N+](=O)[O-])cc1[N+](=O)[O-]', -1),
  ('COc1cc(C(C)(C)C)c(OC(=O)/C=C/C(=O)O/C=C/[N+](=O)[O-])c(C(C)(C)C)c1', -1),
  ('O=C(O)[C@H](NS(=O)(=O)c1ccc([N+](=O)[O-])cc1)c1ccccc1', -1),
  ('C=CC1CCC[N+]1(CC(=O)OCC)Cc1ccccc1 (stereo unspecified)', -1),
  ('Cc1cc2ncn(C3CCCCO3)c2cc1C (stereo unspecified)', -1),
  ('CC(=O)Nc1ccc2c3c(cc(O)c2c1)N(C(=O)CCCC(=O)Nc1ccc2c4c(cc(O)c2c1)N(C(=O)OC(C)(C)C)CC4CCl)CC3CCl (stereo unspecified)', -1),
  ('CCCn1cc2c3c(cccc31)C1C=C(C)CN(C)C1C2 (stereo unspecified)', -1),
  ('CCOc1ncn(-c2ccc(NC(=S)NC3OC(CO)C(O)C(O)C3O)cc2)n1 (stereo unspecified)', -1),
  ('C=C1C(=O)OC2C3OC(C)(CCC(O)C3COC(C)=O)CC(OC(=O)/C(=C/C)COC(C)=O)C12 (stereo unspecified)', -1);
